Data credit: patent US9365588B2

target: human NaV 1.7 (Homo sapiens); assay: E-VIPR optical membrane potential assay with electrical stimulation; conditions: sodium channel inhibition; read-out: Binned Activity Data (IC50)
Sequence (Q15858 whole entry): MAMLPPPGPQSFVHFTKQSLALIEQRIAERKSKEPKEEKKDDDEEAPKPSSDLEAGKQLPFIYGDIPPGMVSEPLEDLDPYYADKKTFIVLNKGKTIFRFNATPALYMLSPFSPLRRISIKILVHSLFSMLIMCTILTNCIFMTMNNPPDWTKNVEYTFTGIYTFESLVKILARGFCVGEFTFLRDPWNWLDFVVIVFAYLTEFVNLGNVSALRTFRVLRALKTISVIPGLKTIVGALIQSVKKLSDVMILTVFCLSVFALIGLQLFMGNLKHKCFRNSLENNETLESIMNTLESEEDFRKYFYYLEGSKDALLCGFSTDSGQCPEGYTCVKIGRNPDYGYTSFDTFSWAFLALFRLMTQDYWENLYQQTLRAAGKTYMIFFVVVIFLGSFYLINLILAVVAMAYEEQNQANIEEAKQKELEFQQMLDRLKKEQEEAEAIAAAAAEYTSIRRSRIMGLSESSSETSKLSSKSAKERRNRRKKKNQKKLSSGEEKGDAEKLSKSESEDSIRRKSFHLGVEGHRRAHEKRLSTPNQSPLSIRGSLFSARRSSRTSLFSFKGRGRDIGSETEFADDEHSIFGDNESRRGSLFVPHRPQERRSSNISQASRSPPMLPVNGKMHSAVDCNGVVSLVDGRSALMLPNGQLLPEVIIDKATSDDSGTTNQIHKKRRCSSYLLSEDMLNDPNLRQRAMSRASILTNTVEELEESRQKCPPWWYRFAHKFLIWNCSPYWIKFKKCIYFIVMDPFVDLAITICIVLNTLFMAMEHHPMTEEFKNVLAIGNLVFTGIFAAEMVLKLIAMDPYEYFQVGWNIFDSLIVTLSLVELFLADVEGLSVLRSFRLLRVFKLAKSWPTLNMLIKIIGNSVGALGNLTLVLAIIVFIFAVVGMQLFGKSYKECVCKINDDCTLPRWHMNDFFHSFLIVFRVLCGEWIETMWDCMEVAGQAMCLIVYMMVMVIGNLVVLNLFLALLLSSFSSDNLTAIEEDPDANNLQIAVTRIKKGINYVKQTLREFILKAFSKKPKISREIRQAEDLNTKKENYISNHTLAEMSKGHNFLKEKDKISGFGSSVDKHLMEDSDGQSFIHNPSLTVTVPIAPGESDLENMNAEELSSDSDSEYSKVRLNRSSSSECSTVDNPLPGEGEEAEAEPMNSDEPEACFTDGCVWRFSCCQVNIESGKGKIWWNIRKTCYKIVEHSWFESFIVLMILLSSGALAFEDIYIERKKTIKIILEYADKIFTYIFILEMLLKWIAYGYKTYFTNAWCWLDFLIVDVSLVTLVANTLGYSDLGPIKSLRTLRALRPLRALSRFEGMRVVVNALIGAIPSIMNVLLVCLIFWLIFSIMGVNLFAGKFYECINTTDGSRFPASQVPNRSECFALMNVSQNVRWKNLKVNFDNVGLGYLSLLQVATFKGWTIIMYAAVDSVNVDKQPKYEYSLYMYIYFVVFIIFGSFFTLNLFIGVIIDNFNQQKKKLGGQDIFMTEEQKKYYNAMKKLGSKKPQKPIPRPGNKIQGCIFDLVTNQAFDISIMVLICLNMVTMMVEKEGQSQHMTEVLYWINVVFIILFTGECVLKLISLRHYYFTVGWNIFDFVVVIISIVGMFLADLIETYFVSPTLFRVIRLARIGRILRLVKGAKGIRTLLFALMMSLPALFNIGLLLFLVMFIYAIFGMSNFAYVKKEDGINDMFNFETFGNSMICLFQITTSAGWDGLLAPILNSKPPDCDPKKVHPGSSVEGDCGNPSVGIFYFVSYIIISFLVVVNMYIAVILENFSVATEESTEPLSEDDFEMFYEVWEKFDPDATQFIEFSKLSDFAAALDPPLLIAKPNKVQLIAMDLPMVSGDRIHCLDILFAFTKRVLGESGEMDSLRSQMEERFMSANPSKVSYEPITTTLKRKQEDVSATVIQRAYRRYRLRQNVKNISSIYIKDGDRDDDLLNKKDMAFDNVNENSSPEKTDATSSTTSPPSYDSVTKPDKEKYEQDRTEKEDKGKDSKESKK
pIC50: −log10 of the molar value.
test-readout: pIC50

Query :: human NaV 1.7 (Homo sapiens) / pIC50 / CC(C)(C)c1ccc(C(=O)N2CCC3(CC2)Oc2ccccc2-n2c(C#N)ccc23)cn1 [Compound 849] : value?
Result :: < 5.30

Query :: human NaV 1.7 (Homo sapiens) / pIC50 / CC[C@H](C)Oc1ccc(C(=O)N2CCC3(CC2)Oc2ccccc2-n2cccc23)cc1C(F)(F)F [Compound 126] : value?
Result :: ≥ 5.70

Query :: human NaV 1.7 (Homo sapiens) / pIC50 / CC(C)(C)c1ccc(C(=O)N2CCC3(CC2)Oc2cc(F)ccc2-n2cccc23)cc1C#N [Compound 536] : value?
Result :: ≥ 5.70

Query :: human NaV 1.7 (Homo sapiens) / pIC50 / COc1ccc(C(=O)N2CCC3(CC2)Oc2ccccc2-c2c3cnn2C)c(C)c1 [Compound 774] : value?
Result :: ≥ 5.70

Query :: human NaV 1.7 (Homo sapiens) / pIC50 / CCCOc1ccc(C(=O)N2CCC3(CC2)Oc2ccccc2-c2c3cnn2C)cc1OC [Compound 190] : value?
Result :: ≥ 5.70

Query :: human NaV 1.7 (Homo sapiens) / pIC50 / COc1ccc(Cl)cc1C(=O)N1CCC2(CC1)Oc1cc(Cl)ccc1-n1cccc12 [Compound 858] : value?
Result :: ≥ 5.70

Query :: human NaV 1.7 (Homo sapiens) / pIC50 / CCc1ccc(C(=O)N2CCC3(CC2)Oc2ccccc2-n2cccc23)cc1OC [Compound 239] : value?
Result :: ≥ 5.70

Query :: human NaV 1.7 (Homo sapiens) / pIC50 / O=C(c1ccc2[nH]ncc2c1)N1CCC2(CC1)Oc1ccccc1-n1c(C(F)(F)F)ccc12 [Compound 556] : value?
Result :: 5.30 to 5.70

Query :: human NaV 1.7 (Homo sapiens) / pIC50 / CCn1ncc2c1-c1cc(F)ccc1OC21CCN(C(=O)c2ccc(OC(C)C)c(OC)c2)CC1 [Compound 742] : value?
Result :: 5.30 to 5.70

Query :: human NaV 1.7 (Homo sapiens) / pIC50 / CC(CO)NS(=O)(=O)c1ccc(C(=O)N2CCC3(CC2)Oc2ccccc2-n2c(C#N)ccc23)cc1 (stereo not shown) [Compound 49] : value?
Result :: < 5.30

Query :: human NaV 1.7 (Homo sapiens) / pIC50 / Cc1cc(C(=O)N2CCC3(CC2)Oc2ccccc2-c2c3cnn2C)ccc1O [Compound 700] : value?
Result :: ≥ 5.70

Query :: human NaV 1.7 (Homo sapiens) / pIC50 / O=C(c1ccc(S(=O)(=O)C2CCOC2)cc1)N1CCC2(CC1)Oc1ccccc1-n1c(C(F)(F)F)ccc12 (stereo not shown) [Compound 840] : value?
Result :: ≥ 5.70

Query :: human NaV 1.7 (Homo sapiens) / pIC50 / Cc1cc(C(=O)N2CCC3(CC2)Oc2ccccc2-c2c3cnn2C)cc(C)c1OC(C)C [Compound 745] : value?
Result :: ≥ 5.70

Query :: human NaV 1.7 (Homo sapiens) / pIC50 / O=C(c1ccc(S(=O)(=O)CC2CCC2)cn1)N1CCC2(CC1)Oc1ccccc1-n1c(C(F)(F)F)ccc12 [Compound 873] : value?
Result :: ≥ 5.70

Query :: human NaV 1.7 (Homo sapiens) / pIC50 / N#Cc1ccc2n1-c1ccccc1OC21CCN(C(=O)c2ccccc2C(F)F)CC1 [Compound 401] : value?
Result :: ≥ 5.70

Query :: human NaV 1.7 (Homo sapiens) / pIC50 / COc1cc(OC(F)(F)F)ccc1C(=O)N1CCC2(CC1)Oc1ccccc1-c1c2cnn1C [Compound 121] : value?
Result :: ≥ 5.70

Query :: human NaV 1.7 (Homo sapiens) / pIC50 / CC(C)Oc1ccc(C(=O)N2CCC3(CC2)Oc2ccccc2-n2c(C#N)ccc23)cc1F [Compound 42] : value?
Result :: ≥ 5.70

Query :: human NaV 1.7 (Homo sapiens) / pIC50 / Cn1ncc2c1-c1ccccc1OC21CCN(C(=O)c2ccc(S(=O)(=O)C(C)(C)C)cc2)CC1 [Compound 643] : value?
Result :: 5.30 to 5.70

Query :: human NaV 1.7 (Homo sapiens) / pIC50 / CC(C)Oc1ccc(C(=O)N2CCC3(CC2)Oc2ccc(F)cc2-c2nn(C)cc23)cc1CO [Compound 180] : value?
Result :: ≥ 5.70

Query :: human NaV 1.7 (Homo sapiens) / pIC50 / COc1cc(C(=O)N2CCC3(CC2)Oc2ccccc2-n2c(C#N)ccc23)ccc1OC(C)(C)C [Compound 686] : value?
Result :: ≥ 5.70

Query :: human NaV 1.7 (Homo sapiens) / pIC50 / COc1c(Cl)cccc1C(=O)N1CCC2(CC1)Oc1ccccc1-c1c2cnn1C [Compound 673] : value?
Result :: ≥ 5.70

Query :: human NaV 1.7 (Homo sapiens) / pIC50 / Nc1nc2ccc(C(=O)N3CCC4(CC3)Oc3ccccc3-n3c(C(F)(F)F)ccc34)cc2s1 [Compound 8] : value?
Result :: 5.30 to 5.70

Query :: human NaV 1.7 (Homo sapiens) / pIC50 / Cc1cc(C(=O)N2CCC3(CC2)Oc2ccccc2-c2ncn(C)c23)ccc1OC(C)C [Compound 525] : value?
Result :: ≥ 5.70

Query :: human NaV 1.7 (Homo sapiens) / pIC50 / CCc1ccc(C(=O)N2CCC3(CC2)Oc2cc(Cl)ccc2-n2cccc23)cc1C [Compound 55] : value?
Result :: ≥ 5.70

Query :: human NaV 1.7 (Homo sapiens) / pIC50 / COc1ccc(C(=O)N2CCC3(CC2)Oc2ccccc2-n2cccc23)cc1S(N)(=O)=O [Compound 542] : value?
Result :: 5.30 to 5.70

Query :: human NaV 1.7 (Homo sapiens) / pIC50 / CC(C)(C)S(=O)(=O)c1ccc(C(=O)N2CCC3(CC2)Oc2ccccc2-n2c(C(F)(F)F)ccc23)cc1 [Compound 483] : value?
Result :: ≥ 5.70

Query :: human NaV 1.7 (Homo sapiens) / pIC50 / COC[C@@H](C)Oc1ccc(C(=O)N2CCC3(CC2)Oc2ccccc2-n2cccc23)cc1OC [Compound 449] : value?
Result :: ≥ 5.70

Query :: human NaV 1.7 (Homo sapiens) / pIC50 / Cn1cc2c(n1)-c1ccccc1OC21CCN(C(=O)c2ccc3nc(N)sc3c2)CC1 [Compound 325] : value?
Result :: 5.30 to 5.70

Query :: human NaV 1.7 (Homo sapiens) / pIC50 / O=C(c1ccc(S(=O)(=O)C2CC2)cc1)N1CCC2(CC1)Oc1ccccc1-n1c(C(F)(F)F)ccc12 [Compound 270] : value?
Result :: ≥ 5.70

Query :: human NaV 1.7 (Homo sapiens) / pIC50 / Cc1cc(C(=O)N2CCC3(CC2)Oc2ccccc2-c2c3cnn2C)ccc1C(C)(C)O [Compound 750] : value?
Result :: ≥ 5.70

Query :: human NaV 1.7 (Homo sapiens) / pIC50 / COc1cc(C(F)(F)F)ccc1C(=O)N1CCC2(CC1)Oc1ccccc1-c1c2cnn1C [Compound 574] : value?
Result :: ≥ 5.70
